Measured inhibition at 10 µM accompanies every entry in the list below.
biological target: recombinant human PAI-1 (Homo sapiens, UniProt P05121); test: biochemical; details: read-out: Inhibition Rate of PAI-1 Activity (%);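 note: PAI-1 preincubated with compound, then two-chain tPA added, residual tPA activity read with fluorogenic Pyr-Gly-Arg-MCA substrate after 30 min at room temperature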
Sequence (P05121 24-402): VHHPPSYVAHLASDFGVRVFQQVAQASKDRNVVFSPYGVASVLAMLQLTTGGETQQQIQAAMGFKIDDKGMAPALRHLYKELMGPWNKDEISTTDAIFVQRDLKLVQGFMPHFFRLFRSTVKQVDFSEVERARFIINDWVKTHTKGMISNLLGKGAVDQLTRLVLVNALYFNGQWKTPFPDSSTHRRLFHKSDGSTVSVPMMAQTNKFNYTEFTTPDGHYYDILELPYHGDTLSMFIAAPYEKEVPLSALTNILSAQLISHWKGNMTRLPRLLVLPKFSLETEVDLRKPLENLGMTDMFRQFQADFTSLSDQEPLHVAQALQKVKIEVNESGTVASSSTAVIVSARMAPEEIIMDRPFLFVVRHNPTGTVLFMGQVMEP

See these solved cases before continuing.
Incoming: Entry `CCCOc1ccc(N(Cc2ccccc2)C(=O)C(=O)O)cc1-c1ccc(OC(F)(F)F)cc1` : reported inhibition at 10 µM = ?
Outgoing: 70%

Incoming: Entry `O=C(O)C(=O)N(CCCCCc1ccccc1)c1ccc(-c2ccc(OC(F)(F)F)cc2)cc1` : reported inhibition at 10 µM = ?
Outgoing: 71%

// below: inhibition at 10 µM requested for another compound
Incoming: Entry `CC(C)(C)c1ccc(CN(C(=O)C(=O)O)c2ccc(OCc3ccc(OC(F)(F)F)cc3)c(OCc3ccc(OC(F)(F)F)cc3)c2)cc1` : reported inhibition at 10 µM = ?
Outgoing: 72%
